Hello, the source for this data is PubChem BioAssay (NCATS), in case you need it.

method description: qHTS Assay for Lipid Storage Modulators (AID 1519)
experimental setup: Drosophila S3 cells, BODIPY lipid droplet/cell ratio, laser cytometry; measured here: cell count channel max response; cells loaded with oleic acid
Records with an inconclusive call do not appear.
Record form. Attribute: max response. Fill in for each entry.
Reply with just the number (in %).

Notebook: Cc1[nH]c2ccc(O)cc2c1CCN , max response read as -4.56

So, COc1ccc2[nH]c3c(c2c1)CCNC3 ? Its max response was -42.9

Consider NNC(N)=O . Its measured max response is -7.78

GET /value?item= CN1C2CCC1CC(OC(c1ccccc1)c1ccccc1N)C2 (stereo not drawn) &field=max response returns -2.6

So, N[C@@H](Cn1oc(=O)[nH]c1=O)C(=O)O ? Its max response was 22.6

Reported max response ( CC(C)CC(NP(=O)(O)O[C@@H]1O[C@@H](C)[C@H](O)[C@@H](O)[C@H]1O)C(=O)NC(Cc1c[nH]c2ccccc12)C(=O)O (stereo partly drawn) ) = 23.5

Measured max response of NC(CCCCCP(=O)(O)O)C(=O)O (stereo not drawn) : -0.44

Entry C=CCN1C[C@@H](C)N([C@H](c2ccc(C(=O)N(CC)CC)cc2)c2cccc(OC)c2)C[C@@H]1C ; max response = -2.68

Lab note: measured max response of Nc1ccc(CCN2CCN(c3cccc(C(F)(F)F)c3)CC2)cc1 was -6.99

Given item O=C(O)c1cc[c]([Hg][Cl])cc1 , the value recorded as its max response is -16.6

Query c1ccc2cc(CC3=NCCN3)ccc2c1 yields max response of 29

Consider CN1CCc2cccc(Cl)c2CC1 . Its measured max response is -8.27

C[N+](C)(C)CC#CCOC(=O)Nc1cccc(Cl)c1 yielded max response of -7.08

// max response value for CCCn1c(C)c(C(=O)c2ccc3ccccc3c2)c2ccccc21 : 17.8

Note to self: max response recorded for CC1OC1P(=O)(O)O (stereo not drawn) was 11.8

max response measured on C=CCC1(C(C)CCC)C(=O)N=C(S)NC1=O (stereo not drawn) = 14.6

What the record says about NCC(O)c1cc(O)c(O)cc1F (stereo not drawn) : max response is -35.5

// recorded max response for NC(N)=Nc1ccc2[nH]c3c(c2c1)C[C@@]1(O)[C@H]2Cc4ccc(O)c5c4[C@@]1(CCN2CC1CC1)[C@H]3O5 : -1.13
